In this section we review reported Kd values for a set of binders.
biological target: von Willebrand factor (VWF) (Homo sapiens, UniProt P04275 P04275:764-2813); test: filter; Bmax 77%; 2 mM CaCl2, 37 C; details: tags: factor VIII free, Haematologic Technologies Inc; label: 5'-32P

[
  {
    "Binder": "ACGAACUGCCCUCGUUAUCGACGCACAGACGU (ssRNA, 2'-F C and U; 2'-OH A and G; 3' idT) [T71]",
    "Kd": "10 nM"
  },
  {
    "Binder": "ACGAACUGCCCUCUAUUAUUUGACGCACAGACGU (ssRNA, 2'-F C and U; 2'-OH A and G; 3' idT) [T90]",
    "Kd": "3.8 nM"
  },
  {
    "Binder": "ACGAACUGCCCUCGAUCGACGCACAGACGUAAA (ssRNA, 2'-F C and U; 2'-OH A and G; 3' idT) [T80]",
    "Kd": "6.3 nM"
  }
]

All figures here come from patent US20190218553.
